# Test system: Staphylococcus aureus
# test-name: Antibacterial activity against erythromycin-susceptible Staphylococcus aureus ATCC 25923 by standard broth microdilution method
# Type: functional
Param label: returns Criterion met when MIC < 8 mg/L, returns Criterion not met otherwise, including exact equality.

Please review the entries below; each comes with its answer.
CC[C@H]1OC(=O)[C@H](C)[C@@H](O[C@H]2C[C@@](C)(OC)[C@@H](O)[C@H](C)O2)[C@H](C)[C@@H](O[C@@H]2O[C@H](C)C[C@H](N(C)C)[C@H]2O)[C@](C)(OC)C[C@@H](C)C(=O)[C@H](C)[C@@H](O)[C@]1(C)O	Criterion met
CC[C@H]1OC(=O)[C@H](C)C(=O)[C@H](C)[C@@H](O[C@H]2O[C@@H](C)C[C@@H](N(C)C)[C@@H]2O)[C@](C)(OC)C[C@@H](C)C(=O)[C@H](C)[C@@H](OC(=O)NCCCn2cc(-c3ccc(Cl)cc3)nn2)[C@]1(C)O	Criterion met
CCCCc1ccc(-c2cn(CCCNC(=O)O[C@@H]3[C@@H](C)C(=O)[C@H](C)C[C@@](C)(OC)[C@H](O[C@H]4O[C@@H](C)C[C@@H](N(C)C)[C@@H]4O)[C@@H](C)C(=O)[C@@H](C)C(=O)O[C@H](CC)[C@@]3(C)O)nn2)cc1	Criterion not met

Challenge: Is 8 mg/L strictly greater than the compound's reported MIC? compound: CC[C@H]1OC(=O)[C@H](C)C(=O)[C@H](C)[C@@H](O[C@H]2O[C@@H](C)C[C@@H](N(C)C)[C@@H]2O)[C@](C)(OC)C[C@@H](C)C(=O)[C@H](C)[C@@H](OC(=O)NCCn2cc(-c3ccc(C(C)(C)C)cc3)nn2)[C@]1(C)O
Response given: Criterion not met

Challenge: Is 8 mg/L strictly greater than the compound's reported MIC? compound: CC[C@H]1OC(=O)[C@H](C)C(=O)[C@H](C)[C@@H](O[C@H]2O[C@@H](C)C[C@@H](N(C)C)[C@@H]2O)[C@](C)(OC)C[C@@H](C)C(=O)[C@H](C)[C@@H](OC(=O)NCCCn2cc(-c3cccc(N)c3)nn2)[C@]1(C)O
Response given: Criterion not met

Challenge: Is 8 mg/L strictly greater than the compound's reported MIC? compound: CC[C@H]1OC(=O)[C@H](C)C(=O)[C@H](C)[C@@H](O[C@H]2O[C@@H](C)C[C@@H](N(C)C)[C@@H]2O)[C@](C)(OC)C[C@@H](C)C(=O)[C@H](C)[C@@H](OC(=O)NCCn2cc(-c3cccc(C)c3)nn2)[C@]1(C)O
Response given: Criterion not met

Challenge: Is 8 mg/L strictly greater than the compound's reported MIC? compound: CC[C@H]1OC(=O)[C@H](C)C(=O)[C@H](C)[C@@H](O[C@H]2O[C@@H](C)C[C@@H](N(C)C)[C@@H]2O)[C@](C)(OC)C[C@@H](C)C(=O)[C@H](C)[C@@H](OC(=O)NCCn2cc(-c3ccccc3OC)nn2)[C@]1(C)O
Response given: Criterion not met

Challenge: Is 8 mg/L strictly greater than the compound's reported MIC? compound: CCOc1ccc(-c2cn(CCNC(=O)O[C@@H]3[C@@H](C)C(=O)[C@H](C)C[C@@](C)(OC)[C@H](O[C@H]4O[C@@H](C)C[C@@H](N(C)C)[C@@H]4O)[C@@H](C)C(=O)[C@@H](C)C(=O)O[C@H](CC)[C@@]3(C)O)nn2)cc1
Response given: Criterion not met

Challenge: Is 8 mg/L strictly greater than the compound's reported MIC? compound: CC[C@H]1OC(=O)[C@H](C)C(=O)[C@H](C)[C@@H](O[C@H]2O[C@@H](C)C[C@@H](N(C)C)[C@@H]2O)[C@](C)(OC)C[C@@H](C)C(=O)[C@H](C)[C@@H](OC(=O)NCCn2cc(-c3cccc(N)c3)nn2)[C@]1(C)O
Response given: Criterion not met

Challenge: Is 8 mg/L strictly greater than the compound's reported MIC? compound: CC[C@H]1OC(=O)[C@H](C)C(=O)[C@H](C)[C@@H](O[C@H]2O[C@@H](C)C[C@@H](N(C)C)[C@@H]2O)[C@](C)(OC)C[C@@H](C)C(=O)[C@H](C)[C@@H](OC(=O)NCCn2cc(-c3ccc(-c4ccccc4)cc3)nn2)[C@]1(C)O
Response given: Criterion not met

Challenge: Is 8 mg/L strictly greater than the compound's reported MIC? compound: CC[C@H]1OC(=O)[C@H](C)C(=O)[C@H](C)[C@@H](O[C@H]2O[C@@H](C)C[C@@H](N(C)C)[C@@H]2O)[C@](C)(OC)C[C@@H](C)C(=O)[C@H](C)[C@@H](OC(=O)NCCCn2cc(-c3ccc(C(C)(C)C)cc3)nn2)[C@]1(C)O
Response given: Criterion not met

Challenge: Is 8 mg/L strictly greater than the compound's reported MIC? compound: CC[C@H]1OC(=O)[C@H](C)C(=O)[C@H](C)[C@@H](O[C@H]2O[C@@H](C)C[C@@H](N(C)C)[C@@H]2O)[C@](C)(OC)C[C@@H](C)C(=O)[C@H](C)[C@@H](OC(=O)NCCCn2cc(-c3ccc(-c4ccccc4)cc3)nn2)[C@]1(C)O
Response given: Criterion met

----------
# Tested on: Staphylococcus aureus
# test-name: Antibacterial activity against erythromycin-susceptible Staphylococcus aureus ATCC 25923 by standard broth microdilution method
# Format: functional
measured-property: MIC (µg/mL)
// return numeric value only (unit: µg/mL, not printed)

Reference set (3 entries):
CCCCc1ccc(-c2cn(CCNC(=O)O[C@@H]3[C@@H](C)C(=O)[C@H](C)C[C@@](C)(OC)[C@H](O[C@H]4O[C@@H](C)C[C@@H](N(C)C)[C@@H]4O)[C@@H](C)C(=O)[C@@H](C)C(=O)O[C@H](CC)[C@@]3(C)O)nn2)cc1	16
CC[C@H]1OC(=O)[C@H](C)C(=O)[C@H](C)[C@@H](O[C@H]2O[C@@H](C)C[C@@H](N(C)C)[C@@H]2O)[C@](C)(OC)C[C@@H](C)C(=O)[C@H](C)[C@@H](OC(=O)NCCn2cc(-c3cccc(Br)c3)nn2)[C@]1(C)O	16
CCc1ccc(-c2cn(CCNC(=O)O[C@@H]3[C@@H](C)C(=O)[C@H](C)C[C@@](C)(OC)[C@H](O[C@H]4O[C@@H](C)C[C@@H](N(C)C)[C@@H]4O)[C@@H](C)C(=O)[C@@H](C)C(=O)O[C@H](CC)[C@@]3(C)O)nn2)cc1	32

Challenge: For the molecule shown here, CC[C@H]1OC(=O)[C@H](C)C(=O)[C@H](C)[C@@H](O[C@H]2O[C@@H](C)C[C@@H](N(C)C)[C@@H]2O)[C@](C)(OC)C[C@@H](C)C(=O)[C@H](C)[C@@H](OC(=O)NCCn2cc(-c3ccccc3)nn2)[C@]1(C)O , give the reported MIC.
Response given: 32

----------
# Test system: Bacillus subtilis
# test-name: Antibacterial activity against penicillin-susceptible Bacillus subtilis ATCC 9372 by standard broth microdilution method
# Format: functional
measured-property: MIC (µg/mL)
// return numeric value only (unit: µg/mL, not printed)

Reference set (3 entries):
CC[C@H]1OC(=O)[C@H](C)C(=O)[C@H](C)[C@@H](O[C@H]2O[C@@H](C)C[C@@H](N(C)C)[C@@H]2O)[C@](C)(OC)C[C@@H](C)C(=O)[C@H](C)[C@@H](OC(=O)NCCCn2cc(-c3cccc(Br)c3)nn2)[C@]1(C)O	2
CC[C@H]1OC(=O)[C@H](C)C(=O)[C@H](C)[C@@H](O[C@H]2O[C@@H](C)C[C@@H](N(C)C)[C@@H]2O)[C@](C)(OC)C[C@@H](C)C(=O)[C@H](C)[C@@H](OC(=O)NCCn2cc(-c3ccc(-c4ccccc4)cc3)nn2)[C@]1(C)O	4
CC[C@H]1OC(=O)[C@H](C)[C@@H](O[C@H]2C[C@@](C)(OC)[C@@H](O)[C@H](C)O2)[C@H](C)[C@@H](O[C@@H]2O[C@H](C)C[C@H](N(C)C)[C@H]2O)[C@](C)(O)C[C@@H](C)CN(C)[C@H](C)[C@@H](O)[C@]1(C)O	0.25

Challenge: For the compound shown here, CC[C@H]1OC(=O)[C@H](C)C(=O)[C@H](C)[C@@H](O[C@H]2O[C@@H](C)C[C@@H](N(C)C)[C@@H]2O)[C@](C)(OC)C[C@@H](C)C(=O)[C@H](C)[C@@H](OC(=O)NCCn2cc(-c3ccccc3OC)nn2)[C@]1(C)O , give the reported MIC.
Response given: 4

Challenge: For the compound shown here, CC[C@H]1OC(=O)[C@H](C)C(=O)[C@H](C)[C@@H](O[C@H]2O[C@@H](C)C[C@@H](N(C)C)[C@@H]2O)[C@](C)(OC)C[C@@H](C)C(=O)[C@H](C)[C@@H](OC(=O)NCCn2cc(-c3ccc(Cl)cc3)nn2)[C@]1(C)O , give the reported MIC.
Response given: 4

Challenge: For the compound shown here, CC[C@H]1OC(=O)[C@H](C)C(=O)[C@H](C)[C@@H](O[C@H]2O[C@@H](C)C[C@@H](N(C)C)[C@@H]2O)[C@](C)(OC)C[C@@H](C)C(=O)[C@H](C)[C@@H](OC(=O)NCCn2cc(-c3ccc(F)cc3)nn2)[C@]1(C)O , give the reported MIC.
Response given: 4

Challenge: For the compound shown here, CC[C@H]1OC(=O)[C@H](C)C(=O)[C@H](C)[C@@H](O[C@H]2O[C@@H](C)C[C@@H](N(C)C)[C@@H]2O)[C@](C)(OC)C[C@@H](C)C(=O)[C@H](C)[C@@H](OC(=O)NCCn2cc(-c3ccc(C)cc3)nn2)[C@]1(C)O , give the reported MIC.
Response given: 8

Challenge: For the compound shown here, CC[C@H]1OC(=O)[C@H](C)C(=O)[C@H](C)[C@@H](O[C@H]2O[C@@H](C)C[C@@H](N(C)C)[C@@H]2O)[C@](C)(OC)C[C@@H](C)C(=O)[C@H](C)[C@@H](OC(=O)NCCn2cc(-c3cccc(Br)c3)nn2)[C@]1(C)O , give the reported MIC.
Response given: 8

FYI, the data here is from ChEMBL document CHEMBL4602639.
